# Tested on: TRPC4 beta (transient receptor potential cation channel C4), mouse
# test_name: potentiation of DAMGO EC20 TRPC4 response – cell-based, Fluo-4, HEK293 TRPC4beta/mu-opioid, confirmation (AID 2555)
# cond: DAMGO EC20, Fluo-4 calcium flux, at 10 µM
Calls of active or inactive are those of the source.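 Rule for the calls: active = primary screen hit whose calcium fluorescence ratio, in both repeats, exceeds the weak agonist control mean by 3 SD; inactive = the rest.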
Possible outcomes: Y for active, N for inactive

>  <compound>
OCC1(Cc2ccc(Cl)cc2)CCN(Cc2ccccc2F)CC1

>  <label_class>
N

$$$$
>  <compound>
CN(C)CCCNc1c2c(nc3cc(-c4cccc(F)c4)nn13)CCC2

>  <label_class>
N

$$$$
>  <compound>
Cc1cccc(CN2CCCC(C(=O)Nc3ccccc3Oc3cccnc3)C2)c1 (stereo not given)

>  <label_class>
N

$$$$
>  <compound>
CCCCC[n+]1cccc2c3ccccc3ccc21

>  <label_class>
N

$$$$
>  <compound>
CC(=O)C1=C(O)C(=O)N(Cc2ccccc2)C1c1ccc([N+](=O)[O-])cc1 (stereo not given)

>  <label_class>
N

$$$$
>  <compound>
O=C(CC1CCCCC1)c1c(O)c2ccccc2oc1=O

>  <label_class>
N

$$$$
>  <compound>
O=c1[nH]ncc(N2CCN(Cc3ccccc3)CC2)c1Cl

>  <label_class>
N

$$$$
>  <compound>
O=C(Cc1ccccc1)Nc1ccccc1Sc1ccccc1

>  <label_class>
N

$$$$
>  <compound>
CCN1CCN(c2ccc(S(=O)(=O)N3CCCCC3)cc2NC(=O)c2cccc(Cl)c2)CC1

>  <label_class>
Y

$$$$
>  <compound>
O=C(N/N=C/c1ccco1)C1COc2ccccc2O1 (stereo not given)

>  <label_class>
N

$$$$
>  <compound>
CCOC(=O)c1oc2ccccc2c1CN1CCCCC1

>  <label_class>
N

$$$$
>  <compound>
CCOc1cccc(CNCCO)c1OCc1ccc(Cl)cc1

>  <label_class>
N

$$$$
>  <compound>
COc1cccc(N2CC(O)=C(c3nc4ccccc4c(=O)[nH]3)C2=N)c1

>  <label_class>
N

$$$$
>  <compound>
Cc1ccc(-n2cc(CNC(C)c3cnn(C)c3)c(-c3ccc(F)cc3)n2)cc1 (stereo not given)

>  <label_class>
N

$$$$
>  <compound>
Cc1ccccc1N1CC(O)(c2cccs2)[N+]2=C1CCCC2 (stereo not given)

>  <label_class>
N

$$$$
>  <compound>
N=c1oc2ccc(Cl)cc2cc1C(=O)NC1CCCCCC1

>  <label_class>
N

$$$$
>  <compound>
Cc1c(CCOC(=O)CC23CC4CC(CC(C4)C2)C3)sc[n+]1Cc1ccccc1

>  <label_class>
N

$$$$
>  <compound>
CCCCN1C(=O)C(=O)N(CC(=O)Nc2cc(OCC)c(N3CCOCC3)cc2OCC)C1=O

>  <label_class>
N

$$$$
>  <compound>
CCCN(CCC)CCCNC(=O)c1cc2c(=O)n(C)c3ccccc3c2n1C

>  <label_class>
N

$$$$
>  <compound>
CN(C)C(CNc1ccc(C(F)(F)F)cn1)c1ccccc1 (stereo not given)

>  <label_class>
N

$$$$
>  <compound>
O=C(CCN1CCc2ccccc2C(O)(c2ccccc2)C1)c1ccc2c(c1)OCCO2 (stereo not given)

>  <label_class>
N

$$$$
>  <compound>
CC#CC[N+](C)(C)CCCCCCCCCCCC

>  <label_class>
N

$$$$
>  <compound>
CN1CCCN(Cc2cccc3ccccc23)CC1

>  <label_class>
N

$$$$
>  <compound>
CCOC(=O)c1ccc(N=C2C(=S)N(c3ccc(C(=O)OCC)cc3)C(=N)N2/N=C/c2ccccc2)cc1

>  <label_class>
N

$$$$
>  <compound>
O=C(OC1C2CCC1C1CN(CCc3ccccc3)CC12)c1ccccc1 (stereo not given)

>  <label_class>
N

$$$$
>  <compound>
Cc1cc(-c2cn3ccccc3n2)c(C)n1-c1ccccc1

>  <label_class>
N

$$$$
>  <compound>
NCCNC(=O)c1c(NC(=O)c2ccccc2)sc2c1CCCC2

>  <label_class>
N

$$$$
>  <compound>
O=C1CC2(CCN(S(=O)(=O)c3ccccc3F)CC2)Oc2ccccc21

>  <label_class>
Y

$$$$
>  <compound>
CSc1ccc2nnc(-c3cccc(F)c3)n2n1

>  <label_class>
Y

$$$$
>  <compound>
CCOC(=O)C1(CCCc2ccccc2)CCN(Cc2cnn(C)c2)CC1

>  <label_class>
N

$$$$
>  <compound>
N#CCCn1cc(CNCc2ccccc2)c(-c2cccc([N+](=O)[O-])c2)n1

>  <label_class>
N

$$$$
>  <compound>
Cc1ccc(-c2cn(-c3ccccc3)c(SCC(N)=O)n2)cc1C

>  <label_class>
N

$$$$
>  <compound>
CC(C)n1cnc2c(N(C)c3ccccc3)nc(N(CCN(C)C)Cc3ccccc3)nc21

>  <label_class>
N

$$$$
>  <compound>
O=C(c1ccc2c(c1)OCO2)C1CCCN(Cc2ccccc2OC(F)F)C1 (stereo not given)

>  <label_class>
N

$$$$
>  <compound>
CCOC(=O)C1(Cc2ccccc2)CCN(CC2CC=CCC2)CC1 (stereo not given)

>  <label_class>
N

$$$$
>  <compound>
O=C(c1sc2ccccc2c1Cl)N(Cc1ccccc1)C1CCS(=O)(=O)C1 (stereo not given)

>  <label_class>
N

$$$$
>  <compound>
Cc1cc(C)c2c(=O)n(CC(=O)NCCCN3CCN(c4ccccc4F)CC3)sc2n1

>  <label_class>
N

$$$$
>  <compound>
Cc1ccccc1-c1n[nH]c(=S)n1Cc1ccccc1

>  <label_class>
N

$$$$
>  <compound>
CCCCc1nc2ccccc2c(N)c1CCC (tested in a mixture with another compound)

>  <label_class>
N

$$$$
>  <compound>
CC(C)CCn1c(N2CCN(c3cccc(Cl)c3)CC2)nc2c1c(=O)[nH]c(=O)n2C

>  <label_class>
N

$$$$
>  <compound>
O=[N+]([O-])c1ccc(CN2CCN(Cc3c[nH]c4ccccc34)CC2)cc1

>  <label_class>
N

$$$$
>  <compound>
CC(=O)c1ccc2c(c1)N(C)c1ccccc1S2

>  <label_class>
N

$$$$
>  <compound>
CC1=CC(=O)C(C(C)C)=C/C1=N/OS(=O)(=O)c1ccccc1

>  <label_class>
Y

$$$$
>  <compound>
COCCCn1c(N)c(-c2nc3ccccc3n2C)c2nc3ccccc3nc21

>  <label_class>
N

$$$$
>  <compound>
CN1CCCCc2c1nc1ccccc1c2N (tested in a mixture with another compound)

>  <label_class>
N

$$$$

---

# test_name: serotonin-gated TRPC4 signal block – cell-based, second counter screen, HEK293 TRPC4/5HT1a, Fluo-4, counter-screen for TRPC4 inhibitor project, confirmation (AID 434978)
# cond: Fluo-4 calcium flux, at 10 µM, serotonin added to trigger calcium flux
The source made the active and inactive calls.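 Rule for the calls: active = primary screen active whose calcium signal fell more than 3 SD beyond the full-serotonin control mean in both duplicate plates; inactive = the rest.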
Classes used: active, inactive

>  <compound>
COc1ccc(C(Nc2ccccn2)c2c(NC(=O)c3ccco3)sc(C)c2C)cc1OC (stereo unspecified)

>  <label_class>
inactive

$$$$
>  <compound>
CCOC(=O)c1c(C)n(C)c2ccc(OCC(O)CNCCc3ccccc3)cc12 (stereo unspecified)

>  <label_class>
inactive

$$$$
>  <compound>
Brc1ccc(N/N=C(/N=Nc2nn[nH]n2)c2ccccc2)cc1

>  <label_class>
active

$$$$
>  <compound>
CCN(CC)CCN(C(=O)c1ccccc1OC)c1nc2ccc(F)cc2s1

>  <label_class>
inactive

$$$$
>  <compound>
Cc1ccc(NC(=O)CN(C)C(=O)CNC(=O)c2sc3ccccc3c2Cl)cc1

>  <label_class>
inactive

$$$$
>  <compound>
CCCn1c(=O)c(C(=O)NCC2CCCO2)c(O)c2ccccc21 (stereo unspecified)

>  <label_class>
inactive

$$$$
>  <compound>
Cc1cc2[nH]c3ccccc3c2c(C)n1

>  <label_class>
active

$$$$
>  <compound>
COC(=O)CSc1nnc(CNS(=O)(=O)c2ccc(Br)cc2)n1C

>  <label_class>
inactive

$$$$
>  <compound>
O=S(=O)(c1ccccc1)N1CCN(C/C=C/c2ccccc2)CC1

>  <label_class>
inactive

$$$$
>  <compound>
CCc1ccc(C(=O)c2cnc3ccc(OC)cc3c2N2CCN(CC)CC2)cc1

>  <label_class>
inactive

$$$$
>  <compound>
O=C(Nc1ccc(Cl)cc1)N1CCC(c2nc(-c3cccs3)no2)CC1

>  <label_class>
inactive

$$$$

---

# test_name: nonspecific potentiation of DAMGO calcium response – cell-based, HEK293 mu-opioid receptor line, counter-screen for TRPC4 allosteric potentiator project, confirmation (AID 449724);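 note: HEK293 cells carrying mu-opioid receptor only with no TRPC4 channel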
# cond: HEK293 mu-opioid receptor cells, Fluo-4 calcium flux, at 10 µM, compound added before EC20 DAMGO stimulus; hits give high values
Activity calls are given as the source filed them.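 The calls were made as follows: active = calcium signal rise more than 3 SD above the low-dose agonist control mean, in both duplicate plates and the primary screen; inactive = the rest.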
observation_type: activation

>  <molecule>
COc1ccc(C(CNC(=O)c2ccccc2SC)N(C)C)cc1 (stereo unspecified)

>  <observation_type>
activation

>  <observed_value>
inactive

$$$$
>  <molecule>
CCCN(C(=O)COC(=O)C12CCC(=O)N1c1ccccc1S2)c1c(N)n(Cc2ccccc2)c(=O)[nH]c1=O (stereo unspecified)

>  <observation_type>
activation

>  <observed_value>
inactive

$$$$
>  <molecule>
CCc1ccc(C(=O)c2cnc3ccc(OC)cc3c2N2CCN(CC)CC2)cc1

>  <observation_type>
activation

>  <observed_value>
inactive

$$$$
>  <molecule>
Cc1cc(C(=O)N/N=C\c2cc(C(C)(C)C)ccc2O)n[nH]1

>  <observation_type>
activation

>  <observed_value>
inactive

$$$$
>  <molecule>
Cc1[nH]n(C)c(=O)c1C(=O)c1c(-c2c(Cl)cccc2Cl)noc1C

>  <observation_type>
activation

>  <observed_value>
inactive

$$$$
>  <molecule>
Cc1nc2ccccc2n1CC(O)COc1ccccc1Cl (stereo unspecified)

>  <observation_type>
activation

>  <observed_value>
inactive

$$$$
>  <molecule>
Cc1c(Cl)cccc1NC(=S)NCC(c1cccnc1)N(C)C (stereo unspecified)

>  <observation_type>
activation

>  <observed_value>
inactive

$$$$
>  <molecule>
COc1ccc(C(=O)C2CCCN(Cc3ccc(Sc4nncn4C)o3)C2)cc1F (stereo unspecified)

>  <observation_type>
activation

>  <observed_value>
inactive

$$$$
>  <molecule>
COc1ccc(CCN(C)C(=O)C2CCCN(C3CCN(Cc4ccccc4)CC3)C2)cc1OC (stereo unspecified)

>  <observation_type>
activation

>  <observed_value>
inactive

$$$$
>  <molecule>
CNC(=O)COc1ccc2oc3c(c2c1)CCCC3

>  <observation_type>
activation

>  <observed_value>
inactive

$$$$
>  <molecule>
CN(C)CCCN(C(=O)CCc1ccccc1)c1nc2ccc(F)cc2s1

>  <observation_type>
activation

>  <observed_value>
inactive

$$$$

Provenance of the data: PubChem BioAssay
